Source of measurements: the Human Domainome abundance scans (Beltran et al. 2025)

B1: Kinesin-like protein KIF16B, residues 1213 to 1273; numbered along this chain, Q96L93 (parent)
chain: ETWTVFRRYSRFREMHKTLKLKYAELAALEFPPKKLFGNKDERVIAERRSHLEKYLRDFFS

- Variants of: B1
- ASSAY_NOTES: abundance fitness (aPCA) (normalised: wild type 0, dead -1); higher = more abundant; growth selection in yeast, the domain comes from the species named
- CONDITION_DETAILS: Homo sapiens
Bucketed by reported abundance fitness, buckets being b0 = under -0.2, b1 = from -0.2 up to 0.1, b2 = 0.1 and over

>>> label_class("ETWTVFRRYSRFREMHKTLKLKYAELAAKEFPPKKLFGNKDERVIAERRSHLEKYLRDFFS [L29K]")
"b0"
>>> label_class("ETWTVFRRYSRFREMHKTLKLKYAELAALEFPPKKLFGNKDERVIAEIRSHLEKYLRDFFS [R48I]")
"b2"
>>> label_class("ETWTVFRRYSRFREMHKTLKLKYAELAALEFPPKKLFGNKDERVIAERRSHLPKYLRDFFS [E53P]")
"b2"
>>> label_class("ETWTVFRRYSRFREMHKTLKLKYAELAALEFPPKKLFGNKDERVHAERRSHLEKYLRDFFS [I45H]")
"b2"
>>> label_class("ETWTVFRRYSRFREMHKTLKLKYAELAALEFCPKKLFGNKDERVIAERRSHLEKYLRDFFS [P32C]")
"b2"

Q: State the band of ETWTVERRYSRFREMHKTLKLKYAELAALEFPPKKLFGNKDERVIAERRSHLEKYLRDFFS [F6E]
A: b1

Q: Please give the result for ETWTVFRRYSRFREMHKTLKLKYAELAALEFPPKKLFFNKDERVIAERRSHLEKYLRDFFS [G38F] too.
A: b0

Q: Please give the result for ETWTVFRRYSRFREMHKTLKLKYAELAALEFPPKKLFGNKDERVIAERRSHMEKYLRDFFS [L52M] too.
A: b1

Q: Please give the result for ETWTVFRRYSRFREMHKTLKLKYASLAALEFPPKKLFGNKDERVIAERRSHLEKYLRDFFS [E25S] too.
A: b0

Q: Please give the result for ETWTVFRRYSRFREMHKTLKLKYAVLAALEFPPKKLFGNKDERVIAERRSHLEKYLRDFFS [E25V] too.
A: b0

Q: Please give the result for ETWTVFRRSSRFREMHKTLKLKYAELAALEFPPKKLFGNKDERVIAERRSHLEKYLRDFFS [Y9S] too.
A: b1
